Biological target: human GPR40 (Homo sapiens)
Sequence (O14842 whole entry): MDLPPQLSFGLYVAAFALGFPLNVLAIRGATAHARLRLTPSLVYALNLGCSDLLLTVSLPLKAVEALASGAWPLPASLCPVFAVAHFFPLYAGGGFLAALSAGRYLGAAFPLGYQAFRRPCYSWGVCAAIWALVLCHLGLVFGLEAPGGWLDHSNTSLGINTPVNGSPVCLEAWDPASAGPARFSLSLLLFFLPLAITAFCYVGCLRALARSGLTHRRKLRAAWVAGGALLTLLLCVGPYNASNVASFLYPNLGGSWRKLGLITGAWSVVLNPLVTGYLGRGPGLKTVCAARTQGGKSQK
Test: FDSS-based intracellular calcium assay (Human GRP40 in vitro assay)
Type: cell-based
Parameters: 3xFLAG; expressed in transfected cells
Settings: cells expressing GPR40, intracellular Ca2+ response, FDSS reader; read-out: hGPR40 EC50
Protocol: To conduct the fluorescent imaging plate reader (FLIPR)-based calcium flux assay to measure intracellular Ca^2+ response, cells expressing GPR40 are plated on 384 well plates (BD BIOCOAT® #356697) at a density of 20,000 cells/20 μL medium per well in phenol red and serum-free DMEM (GIBCO® #21063-029) and incubated overnight. […] Run fluorescence/luminescence reader FDSS (Hamamatsu) to read intracellular Ca^2+ response.
pEC50: −log10 of the molar value. Where a name gives a salt, the structure may show the parent alone.
Property: pEC50

CCOc1ccc(F)c(N2CCC(Oc3ccc(N4C[C@H](Oc5ccccc5C#N)C[C@@H]4CC(=O)O)cc3)CC2)c1    5.85
COc1ccc(C2CCCC2(C)C)c(N2CCC(Oc3ccc(N4C[C@H](OC)C[C@@H]4CC(=O)O)cc3)CC2)c1 (single isomer, unassigned) [Example 65, Isomer 2]    6.92
CCOc1ccc(F)c(N2CCC(Oc3ccc(N4C[C@H](OC)[C@@H](C)[C@@H]4CC(=O)O)cn3)CC2)c1 [Example 95, TFA]    6.29
CCOc1ccc(F)c(N2CCC(Oc3ccc(N4C[C@H](C(F)(F)F)C[C@@H]4CC(=O)O)cc3)C(C)C2C)c1 (single isomer, unassigned) [Example 44, Isomer 2, HCl]    6.30

1: CCOc1ccc(F)c(N2CCC(Oc3ccc(N4C[C@H](C(F)(F)F)C[C@@H]4CC(=O)O)cc3)C(C)C2C)c1 (single isomer, unassigned) [Example 44, Isomer 1, HCl]
2: CCOc1ccc(F)c(N2CCC(Oc3ccc(N4C[C@H](Oc5ccc(C#N)cc5)CC4CC(=O)O)cc3)CC2)c1 (stereo partly drawn) [Example 128, HCl]
Query: Please indicate which item has the smaller measured pEC50: 1 versus 2 Output the label that corresponds to your choice.
Reply: 2
(2: 5.89, 1: 6.30)
